Data provenance is patent US20140349994A1.

observable: melting point

Some solved entries appear below for comparison.
[[record]]
compound = "COCCOCCN1CCc2sc(Nc3ncc(F)cn3)nc2-c2cn[nH]c21"
observable = "melting point"
value_measured = "> 220 °C"

[[record]]
compound = "CC1COCC(C)N1CCCN1CCc2sc(Nc3ncc(F)cn3)nc2-c2cn[nH]c21 (stereo not shown)"
observable = "melting point"
value_measured = "223 °C"

[[record]]
compound = "Fc1cnc(Nc2nc3c(s2)CCN(CC2CC(F)(F)C2)c2[nH]ncc2-3)nc1"
observable = "melting point"
value_measured = "> 280 °C"


// below: melting point requested for another compound
What does the record list as melting point for FCCCN1CCc2sc(Nc3ncc(F)cn3)nc2-c2cn[nH]c21 ?
> 290 °C
